# Assayed System: angiotensin converting enzyme (ACE) (Oryctolagus cuniculus, UniProt P12822)
# Construct: purchased Sigma
# Sequence (P12822 34-1310): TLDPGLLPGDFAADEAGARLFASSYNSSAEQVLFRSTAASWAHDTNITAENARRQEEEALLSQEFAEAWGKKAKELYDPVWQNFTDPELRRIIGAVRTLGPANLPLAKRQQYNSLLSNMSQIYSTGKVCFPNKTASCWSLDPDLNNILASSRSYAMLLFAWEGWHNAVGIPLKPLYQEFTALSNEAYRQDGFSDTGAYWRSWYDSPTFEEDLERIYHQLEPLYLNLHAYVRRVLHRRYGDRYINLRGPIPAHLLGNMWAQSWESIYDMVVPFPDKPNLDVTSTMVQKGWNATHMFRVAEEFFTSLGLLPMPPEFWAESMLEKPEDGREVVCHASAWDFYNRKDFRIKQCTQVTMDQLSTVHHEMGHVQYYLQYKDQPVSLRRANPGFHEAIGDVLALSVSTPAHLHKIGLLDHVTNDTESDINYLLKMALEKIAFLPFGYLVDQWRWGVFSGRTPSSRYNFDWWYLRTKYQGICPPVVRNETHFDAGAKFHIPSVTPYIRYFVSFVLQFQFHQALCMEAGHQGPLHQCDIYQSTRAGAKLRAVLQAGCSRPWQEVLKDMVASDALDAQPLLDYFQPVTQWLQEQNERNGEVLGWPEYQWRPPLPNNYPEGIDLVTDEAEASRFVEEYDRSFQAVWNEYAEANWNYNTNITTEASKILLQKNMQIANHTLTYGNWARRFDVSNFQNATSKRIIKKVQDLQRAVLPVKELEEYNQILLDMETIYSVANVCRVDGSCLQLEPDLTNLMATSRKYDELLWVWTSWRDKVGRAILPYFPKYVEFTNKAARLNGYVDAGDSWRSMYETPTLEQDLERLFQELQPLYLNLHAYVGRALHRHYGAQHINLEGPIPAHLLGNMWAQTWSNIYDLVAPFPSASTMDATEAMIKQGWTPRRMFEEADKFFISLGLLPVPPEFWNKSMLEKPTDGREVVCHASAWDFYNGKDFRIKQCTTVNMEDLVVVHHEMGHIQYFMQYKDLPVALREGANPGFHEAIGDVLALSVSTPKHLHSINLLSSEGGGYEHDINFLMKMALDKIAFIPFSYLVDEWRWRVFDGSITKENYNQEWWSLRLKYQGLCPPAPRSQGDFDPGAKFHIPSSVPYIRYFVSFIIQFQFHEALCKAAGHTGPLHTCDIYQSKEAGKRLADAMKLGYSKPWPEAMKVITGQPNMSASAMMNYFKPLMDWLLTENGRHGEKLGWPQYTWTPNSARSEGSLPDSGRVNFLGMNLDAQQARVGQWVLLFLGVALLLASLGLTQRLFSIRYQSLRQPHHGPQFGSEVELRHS
# Assay Text: ACE assay with purified ACE enzyme (Inhibition of Angiotensin Converting Enzyme)
# Format: biochemical
# Assay Setup: purified ACE enzyme (Sigma); judged from IC50 values
No end group written: not given here.
Endpoint Name: ACE inhibiting activity (in words)

# Substance, Data Value
records = [
    ("NSLPEN [SEQ ID NO: 5]", "good ACE inhibitors"),
    ("LSEPKV [SEQ ID NO: 6]", "good ACE inhibitors"),
    ("FYGPIPNS [SEQ ID NO: 4]", "good ACE inhibitors"),
]
